# STUDY SYSTEM: CCR10 (Homo sapiens)
# Construct: purchased Promega (in-house HiBiT-GPCR construct library, NanoBRET)
# Sequence (P46092 whole entry): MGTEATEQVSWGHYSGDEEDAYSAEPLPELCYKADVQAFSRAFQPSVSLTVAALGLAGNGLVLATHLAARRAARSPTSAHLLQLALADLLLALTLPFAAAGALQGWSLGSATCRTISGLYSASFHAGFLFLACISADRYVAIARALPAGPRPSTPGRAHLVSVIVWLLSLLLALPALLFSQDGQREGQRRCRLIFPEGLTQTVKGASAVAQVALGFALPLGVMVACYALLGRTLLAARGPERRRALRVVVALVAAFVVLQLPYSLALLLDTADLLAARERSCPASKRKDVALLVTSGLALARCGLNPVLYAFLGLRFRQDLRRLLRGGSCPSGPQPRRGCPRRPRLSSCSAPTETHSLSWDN
# MEASUREMENT DESCRIPTION: NanoBRET screen HiBiT-CCR10 in HEK293
# Assay type: binding
# SETTINGS: CCR10; tracer 0.1μM
PROPERTY MEASURED: NanoBRET Fold Response
# respond with the number and nothing more

{"COMPOUND": "O=C(CCc1ccc2n1[B-](F)(F)[N+]1=C(c3ccc[nH]3)C=CC1=C2)NCc1ccc(C(=O)NCCOCCC(=O)N[C@@H]2CC[C@@]3(O)[C@H]4Cc5ccc(O)c6c5[C@@]3(CCN4CC3CC3)[C@H]2O6)cc1 [Naltrexone-3-NB590]", "READOUT VALUE": 1.02}

Request the reported NanoBRET Fold Response associated with "CC(C)N(CC[C@H](c1ccccc1)c1cc(CCNC(=O)c2ccc(CNC(=O)CCc3ccc4n3[B-](F)(F)[N+]3=C(c5ccc[nH]5)C=CC3=C4)cc2)ccc1O)C(C)C"
1.00

Subsequent entry: "Cc1cc2c(s1)Nc1ccccc1N=C2N1CCN(CCCNC(=O)CCOCCOCCOCCOCCNC(=O)CCc2ccc3n2[B-](F)(F)[N+]2=C(c4ccc[nH]4)C=CC2=C3)CC1"
1.01

The reported measurements were obtained from paper PMC8151276.
